target_of_assay: UniProtKB P11474
Sequence (P11474 193-421 limits assumed, species assumed): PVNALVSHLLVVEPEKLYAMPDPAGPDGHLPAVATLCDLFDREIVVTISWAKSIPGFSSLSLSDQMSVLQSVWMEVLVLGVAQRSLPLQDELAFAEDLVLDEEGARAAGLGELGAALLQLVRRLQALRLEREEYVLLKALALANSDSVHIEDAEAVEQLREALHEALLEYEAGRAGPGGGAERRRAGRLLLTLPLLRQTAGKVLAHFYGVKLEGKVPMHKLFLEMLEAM
assay_details: TR-FRET assay (disruption of co-activator peptide binding)
experimental_parameters: 6His-tagged ERR1 LBD, GST-hSRC2 co-activator polypeptide; average of 3 independent experiments
readout_kind: pEC50
Answers are plain numbers, as −log10 of the molar value.

Worked cases, pEC50 given:
CN1C[C@@H]2C[C@H]1CN2C1=NC(=O)/C(=C/c2ccc3c(cnn3Cc3ccc(C(F)(F)F)cc3C(F)(F)F)c2)S1    7.96
CN1C2CCC1CN(C1=NC(=O)/C(=C/c3ccc4c(cnn4Cc4ccc(Cl)cc4C(F)(F)F)c3)S1)C2    7.67
O=C1N=C(N2CCO[C@H](CO)C2)S/C1=C\c1ccc2c(cnn2Cc2ccc(F)cc2C(F)(F)F)c1    7.26
CS(=O)(=O)NC1CCN(C2=NC(=O)/C(=C/c3ccc4c(cnn4Cc4ccc(C(F)(F)F)cc4C(F)(F)F)c3)S2)CC1    7.57
CC(C)(C)NC(=O)[C@@H]1CN(C2=NC(=O)/C(=C/c3ccc4c(cnn4Cc4ccc(Cl)cc4C(F)(F)F)c3)S2)CCN1    7.59

Provide the reported pEC50 of each entry below, same order.
1. CN1CCN(C2=NC(=O)/C(=C/c3ccc4c(cnn4Cc4ccc(C#N)cc4C(F)(F)F)c3)S2)CC1
2. Cc1nnc(C)n1C1CCN(C2=NC(=O)/C(=C/c3ccc4c(cnn4Cc4ccc(Cl)cc4C(F)(F)F)c3)S2)CC1

Key:
[6.70, 7.96]
